- Test system: SF-268
- Test name: in vitro CNS cancer cell growth inhibition (NCI screen)
As shown below, each of these molecules has a reported cytotoxicity log GI50 value.
Please report the result as a number followed by the unit.

Please review the following examples before continuing.
{"Molecule": "CCC(C)n1c(C)nc2c1C(=O)c1ccccc1C2=O (stereo not drawn)", "Reported result": "-4.51 M"}
{"Molecule": "NC1=C(NC(=O)Cc2ccccc2F)C(=O)c2ccccc2C1=O", "Reported result": "-4.46 M"}
{"Molecule": "O=C(O)CCCc1nc2c(n1-c1ccccc1)C(=O)c1ccccc1C2=O", "Reported result": "-4.42 M"}

Value of measured cytotoxicity log GI50 for the entry CCn1c(C)nc2c1C(=O)c1ccccc1C2=O : -6.48 M

Input Cc1nc2c(n1CCC(C)C)C(=O)c1ccccc1C2=O . Output cytotoxicity log GI50: -4.84 M

Field cytotoxicity log GI50 (entry NC1=C(NC(=O)Cc2ccc(F)cc2)C(=O)c2ccccc2C1=O ) reads -4.54 M

Record Cc1nc2c(n1Cc1ccc(F)cc1)C(=O)c1ccccc1C2=O , field cytotoxicity log GI50: -5.34 M

Record summary for Cc1ccc(Cn2c(C)nc3c2C(=O)c2ccccc2C3=O)cc1 : reported cytotoxicity log GI50 = -5.46 M

Just so you know, measured cytotoxicity log GI50 for O=C(O)CCCc1nc2c(n1Cc1ccccc1)C(=O)c1ccccc1C2=O came out at -4.58 M

Query Cc1nc2c(n1Cc1ccc(Cl)cc1)C(=O)c1ccccc1C2=O yields cytotoxicity log GI50 of -5.29 M

Record CC(=O)NC1=C(NCC(C)C)C(=O)c2ccccc2C1=O . Reported cytotoxicity log GI50: -4.69 M

get_value(item= COc1ccc(Cn2c(C)nc3c2C(=O)c2ccccc2C3=O)cc1 , readout=cytotoxicity log GI50) returns -5.35 M

* * *

- Test system: SW 620
- Test name: in vitro colon cancer cell growth inhibition (NCI screen)
Kindly return MET if reported cytotoxicity log GI50 is no lower than -5 M; return NOT MET if it is lower.

{"Mol smiles": "CCNC1=C(NC(=O)CC)C(=O)c2ccccc2C1=O", "Discrete label": "MET"}
{"Mol smiles": "Cc1ccc(Cn2c(C)nc3c2C(=O)c2ccccc2C3=O)cc1", "Discrete label": "NOT MET"}
{"Mol smiles": "CCc1nc2c(n1CC)C(=O)c1ccccc1C2=O", "Discrete label": "MET"}
{"Mol smiles": "CC(=O)NC1=C(NCC(C)C)C(=O)c2ccccc2C1=O", "Discrete label": "MET"}

Attention now shifts to the item below.
Query: Dear colleague, could you confirm whether COc1ccc(C(=O)NC2=C(Cl)C(=O)c3ccccc3C2=O)cc1 has cytotoxicity log GI50 at or above -5 M?
Result: NOT MET

* * *

Reported cytotoxicity log GI50 values for a set of molecules
- Tested on: SK-MEL-5
- Test name: in vitro melanoma cell growth inhibition (NCI screen)

Consider the following illustrative entries.
{"Molecule": "CCNC1=C(NC(=O)CC)C(=O)c2ccccc2C1=O [Compound 45]", "Reported result": "-4.27 M"}
{"Molecule": "CCC(C)(C)n1c(C)nc2c1C(=O)c1ccccc1C2=O [Compound 12]", "Reported result": "-4.80 M"}
{"Molecule": "CCC(C)Cn1c(C)nc2c1C(=O)c1ccccc1C2=O (stereo not shown) [Compound 13]", "Reported result": "-4.82 M"}

Response field cytotoxicity log GI50 (SK-MEL-5) for item Cc1nc2c(n1CC(C)C)C(=O)c1ccccc1C2=O [Compound 7] : -4.73 M

* * *

- System: SW 620
- Test name: in vitro colon cancer cell growth inhibition (NCI screen)
Below, each entry is listed alongside its reported cytotoxicity log GI50.
Only the number, expressed in M, is required.

Reported cytotoxicity log GI50 for CCNC1=C(NC(=O)c2ccc(F)cc2)C(=O)c2ccccc2C1=O was -4.49

Reported cytotoxicity log GI50 ( O=C(Cc1ccc(F)cc1)NC1=C(Cl)C(=O)c2ccccc2C1=O ) = -5.68

Form field cytotoxicity log GI50, entry CC(=O)NC1=C(NCCCl)C(=O)c2ccccc2C1=O : -4.60

The molecule listed as COc1cc(OC)cc(C(=O)NC2=C(Cl)C(=O)c3ccccc3C2=O)c1 has a reported cytotoxicity log GI50 of -6.24

Lab note: measured cytotoxicity log GI50 of O=C(NC1=C(Cl)C(=O)c2ccccc2C1=O)c1ccc(F)cc1 was -6.11

The recorded cytotoxicity log GI50 for entry CCNC1=C(NC(=O)c2ccc(OC)cc2)C(=O)c2ccccc2C1=O equals -4.36

Recorded result, CCNC1=C(NC(=O)c2ccccc2)C(=O)c2ccccc2C1=O , cytotoxicity log GI50: -4.63

Looking up COc1ccc(CNC2=C(NC(C)=O)C(=O)c3ccccc3C2=O)cc1 , I found its cytotoxicity log GI50 recorded as -5.09

* * *

- System: MALME-3M
- Test name: in vitro melanoma cell growth inhibition (NCI screen)
Kindly return rule met if reported cytotoxicity log GI50 is no lower than -5 M; return rule not met if it is lower.

Recorded results for 2 compounds are shown here.
{"Compound": "CCC(CC)n1c(C)nc2c1C(=O)c1ccccc1C2=O", "Discrete label": "rule met"}
{"Compound": "CCCC(=O)NC1=C(NCC)C(=O)c2ccccc2C1=O", "Discrete label": "rule met"}

Query: Decide: cytotoxicity log GI50 of O=C(Cc1ccc(F)cc1)NC1=C(Cl)C(=O)c2ccccc2C1=O >= -5 M?
Result: rule not met

Query: Could you tell me if the measured cytotoxicity log GI50 of CC(=O)NC1=C(NCC(C)(C)C)C(=O)c2ccccc2C1=O reaches -5 M or more?
Result: rule met

Query: For this compound, is measured cytotoxicity log GI50 -5 M or higher? COc1ccc(-n2c(CCCC(=O)O)nc3c2C(=O)c2ccccc2C3=O)cc1
Result: rule met

Query: Item CCC(C)n1c(C)nc2c1C(=O)c1ccccc1C2=O (centres unmarked) with cytotoxicity log GI50 of -5 M or above?
Result: rule met

Query: Quick check, cytotoxicity log GI50 >= -5 M? CCNC1=C(NC(=O)c2ccccc2)C(=O)c2ccccc2C1=O
Result: rule met

Query: Could you tell me if the measured cytotoxicity log GI50 of CCNC1=C(NC(=O)c2ccc(F)cc2)C(=O)c2ccccc2C1=O reaches -5 M or more?
Result: rule met

Query: Does cytotoxicity log GI50 meet or surpass -5 M for O=C(O)CCCc1nc2c(n1Cc1ccccc1)C(=O)c1ccccc1C2=O ?
Result: rule met

Query: In plain terms: is recorded cytotoxicity log GI50 at least -5 M for Cc1nc2c(n1CC(C)C)C(=O)c1ccccc1C2=O ?
Result: rule met

Query: cytotoxicity log GI50 >= -5 M for Cc1nc2c(n1CCCl)C(=O)c1ccccc1C2=O ?
Result: rule not met

Query: Does the reported cytotoxicity log GI50 for Cc1nc2c(n1C(C)(C)C)C(=O)c1ccccc1C2=O fall at or above the -5 M mark?
Result: rule met

Query: Does the compound COC(=O)CCCC(=O)NC1=C(Nc2ccc(OC)cc2)C(=O)c2ccccc2C1=O have recorded cytotoxicity log GI50 that is -5 M or more?
Result: rule not met

Query: // inclusive: cytotoxicity log GI50 at least -5 M? input: CCC(C)CNC1=C(NC(C)=O)C(=O)c2ccccc2C1=O (centres unmarked)
Result: rule met

Query: Given the entry COC(=O)CCCC(=O)NC1=C(NCc2ccccc2)C(=O)c2ccccc2C1=O , answer whether its cytotoxicity log GI50 meets or surpasses -5 M.
Result: rule met

* * *

- Tested on: MALME-3M
- Test name: in vitro melanoma cell growth inhibition (NCI screen)
Given measured cytotoxicity log GI50, output t if it is greater than or equal to -5 M and f if not.

{"Mol smiles": "COC(=O)CCCC(=O)NC1=C(Nc2ccccc2)C(=O)c2ccccc2C1=O", "Discrete label": "f"}
{"Mol smiles": "CCCc1nc2c(n1CC)C(=O)c1ccccc1C2=O", "Discrete label": "t"}
{"Mol smiles": "CCNC1=C(NC(=O)CC)C(=O)c2ccccc2C1=O", "Discrete label": "t"}
{"Mol smiles": "O=C(NC1=C(Cl)C(=O)c2ccccc2C1=O)c1ccc(F)cc1", "Discrete label": "f"}
{"Mol smiles": "CCC(C)(C)NC1=C(NC(C)=O)C(=O)c2ccccc2C1=O", "Discrete label": "t"}

Query: Does the reported cytotoxicity log GI50 for CCn1c(CCl)nc2c1C(=O)c1ccccc1C2=O fall at or above the -5 M mark?
Result: f

Query: Is reported cytotoxicity log GI50 greater than or equal to -5 M here: COc1ccc(C(=O)NC2=C(Cl)C(=O)c3ccccc3C2=O)cc1
Result: f

* * *

The following compounds are listed with their measured cytotoxicity log GI50 values.
- Tested on: SK-MEL-5
- Test name: in vitro melanoma cell growth inhibition (NCI screen)
I only need the number, in M, no unit after it.

Worked cases, answers included:
{"Mol smiles": "Cc1nc2c(n1CCN(C)C)C(=O)c1ccccc1C2=O", "Result unit": "M", "cytotoxicity log GI50": -5.13}
{"Mol smiles": "O=C(O)CCc1nc2c(n1Cc1ccccc1)C(=O)c1ccccc1C2=O", "Result unit": "M", "cytotoxicity log GI50": -4.67}
{"Mol smiles": "CC(=O)NC1=C(NCC(C)(C)C)C(=O)c2ccccc2C1=O", "Result unit": "M", "cytotoxicity log GI50": -4.40}

For record CCNC1=C(NC(=O)c2ccc(OC)cc2)C(=O)c2ccccc2C1=O the listed cytotoxicity log GI50 is -4.46

// CCCc1nc2c(n1CC)C(=O)c1ccccc1C2=O : cytotoxicity log GI50 value = -4.53
